Tested on: Mycobacterium tuberculosis
Assay: Binding affinity to Mycobacterium tuberculosis fumarate hydratase expressed in Escherichia coli BL21(DE3) assessed as change in melting temperature at 5 mM by Sypro orange dye based differential scanning fluorimetry
measurementName: ΔTm
Kindly write the number and append the unit.

The recorded ΔTm for Nc1cccc(S(=O)(=O)N2CCCCCC2)c1 is -1.2 °C

The recorded ΔTm for Nc1cc(S(=O)(=O)N2CCCCCC2)ccc1O is -1.6 °C

The recorded ΔTm for CCOC(=O)Cc1nnc(O)c2ccccc12 is -0.6 °C

The recorded ΔTm for COc1ccc(S(=O)(=O)N2CCCCCC2)cc1 is 0.1 °C

The recorded ΔTm for O=C(O)Cc1nnc(O)c2ccccc12 is -0.4 °C

The recorded ΔTm for COc1ccc(S(=O)(=O)N2CCCCCC2)cc1NC(C)=O is -0.6 °C

The recorded ΔTm for CNS(=O)(=O)c1ccc(OC)c(NC(C)=O)c1 is -0.4 °C

The recorded ΔTm for CC(=O)Nc1cccc(S(=O)(=O)N2CCCCCC2)c1 is -0.4 °C

The recorded ΔTm for COc1ccc(S(=O)(=O)N2CCCCCC2)cc1N is -0.7 °C

The recorded ΔTm for COc1ccccc1NC(=O)Cc1n[nH]c(=O)c2ccccc12 is -0.4 °C

----------
System: Mycobacterium tuberculosis
Test: Inhibition of Mycobacterium tuberculosis fumarate hydratase expressed in Escherichia coli BL21(DE3) at 50 uM using fumaric acid as substrate preincubated for 5 mins followed by substrate addition incubated for 2 mins and measured at 24 secs interval for 10 mins by spectrometric method relative to control
Response key: class 1 means inhibition >= 30%; class 0 means inhibition < 30%.

Query string: Determine whether measured inhibition meets or exceeds 30% for COc1ccc(S(=O)(=O)N2CCCCCC2)cc1NC(=O)Cc1ccncc1
Result string: class 0

Query string: Determine whether measured inhibition meets or exceeds 30% for O=C(Cc1nnc(O)c2ccccc12)Nc1cccc(S(=O)(=O)N2CCCCCC2)c1
Result string: class 0

Query string: Determine whether measured inhibition meets or exceeds 30% for COc1ccc(S(=O)(=O)N2CCCCCC2)cc1NC(=O)Cn1cnc2ccccc21
Result string: class 0

Query string: Determine whether measured inhibition meets or exceeds 30% for COc1ccc(S(=O)(=O)N2CCCCCC2)cc1NC(=O)Cc1coc2ccccc12
Result string: class 0

Query string: Determine whether measured inhibition meets or exceeds 30% for COc1ccc2[nH]cc(CC(=O)Nc3cc(S(=O)(=O)N4CCCCCC4)ccc3OC)c2c1
Result string: class 1

Query string: Determine whether measured inhibition meets or exceeds 30% for COc1ccc(S(=O)(=O)N2CCCCCC2)cc1NC(=O)Cc1nnc(O)c2ccccc12
Result string: class 1

Query string: Determine whether measured inhibition meets or exceeds 30% for COc1ccc(S(=O)(=O)N2CCCCCC2)cc1NC(=O)Cc1ccnc2ccccc12
Result string: class 1

Query string: Determine whether measured inhibition meets or exceeds 30% for COc1ccc(S(=O)(=O)N2CCCCCC2)cc1NC(=O)CCc1c[nH]c2ccccc12
Result string: class 0

Query string: Determine whether measured inhibition meets or exceeds 30% for Cc1ccc(S(=O)(=O)N2CCCCCC2)cc1NC(=O)Cc1n[nH]c(=O)c2ccccc12
Result string: class 0

Query string: Determine whether measured inhibition meets or exceeds 30% for COc1ccc(S(=O)(=O)N2CCCCCC2)cc1NC(=O)Cc1noc2ccccc12
Result string: class 0

Query string: Determine whether measured inhibition meets or exceeds 30% for COc1ccc(S(=O)(=O)NCc2ccccc2)cc1NC(=O)Cc1n[nH]c(=O)c2ccccc12
Result string: class 1

Query string: Determine whether measured inhibition meets or exceeds 30% for COc1ccc(S(=O)(=O)N2CCCCCC2)cc1NC(=O)Cc1c[nH]c2ccccc12
Result string: class 0

Query string: Determine whether measured inhibition meets or exceeds 30% for COc1ccc(S(=O)(=O)N2CCCCCC2)cc1NC(=O)Cc1cccc2ccccc12
Result string: class 0

Query string: Determine whether measured inhibition meets or exceeds 30% for COc1ccc(S(=O)(=O)N2CC3CC(C2)c2ccccc23)cc1NC(=O)Cc1n[nH]c(=O)c2ccccc12
Result string: class 1

Query string: Determine whether measured inhibition meets or exceeds 30% for COc1ccc(C(=O)N2CCCCCC2)cc1NC(=O)Cc1n[nH]c(=O)c2ccccc12
Result string: class 0
